Would you kindly list melting point for each of these compounds?

Give melting point for each listed item.
1. CCCCc1ccc(-n2sc3ccccc3c2=O)cc1
2. O=c1c2ccccc2sn1-c1ccc(Br)cc1
3. O=c1c2ccccc2sn1-c1ccc([N+](=O)[O-])cc1
4. Cc1cc([N+](=O)[O-])ccc1-n1sc2ccccc2c1=O
5. O=c1c2ccccc2sn1-c1ccccc1[N+](=O)[O-]
6. O=c1c2ccccc2sn1-c1ccccc1O
7. O=c1c2ccccc2sn1-c1c(Cl)cccc1Cl

Reply:
1: 168 to 172 °C; 2: 138 to 140 °C; 3: 126 to 129 °C; 4: 135 to 138 °C; 5: 199 to 200 °C; 6: 198 to 200 °C; 7: 188 to 190 °C

Where do these numbers come from? They come from paper PMC8070447.
